target: ABL2/ARG (Homo sapiens, UniProt P42684); construct: purchased Reaction Biology (HotSpot contract assay); test: HotSpot in vitro kinase radiometric assay; format: biochemical; details: ABL2/ARG; 10uM; ATP 30 uM; Data 1, Data 2; read-out: % Enzyme Activity (relative to DMSO controls)
Sequence (P42684 whole entry): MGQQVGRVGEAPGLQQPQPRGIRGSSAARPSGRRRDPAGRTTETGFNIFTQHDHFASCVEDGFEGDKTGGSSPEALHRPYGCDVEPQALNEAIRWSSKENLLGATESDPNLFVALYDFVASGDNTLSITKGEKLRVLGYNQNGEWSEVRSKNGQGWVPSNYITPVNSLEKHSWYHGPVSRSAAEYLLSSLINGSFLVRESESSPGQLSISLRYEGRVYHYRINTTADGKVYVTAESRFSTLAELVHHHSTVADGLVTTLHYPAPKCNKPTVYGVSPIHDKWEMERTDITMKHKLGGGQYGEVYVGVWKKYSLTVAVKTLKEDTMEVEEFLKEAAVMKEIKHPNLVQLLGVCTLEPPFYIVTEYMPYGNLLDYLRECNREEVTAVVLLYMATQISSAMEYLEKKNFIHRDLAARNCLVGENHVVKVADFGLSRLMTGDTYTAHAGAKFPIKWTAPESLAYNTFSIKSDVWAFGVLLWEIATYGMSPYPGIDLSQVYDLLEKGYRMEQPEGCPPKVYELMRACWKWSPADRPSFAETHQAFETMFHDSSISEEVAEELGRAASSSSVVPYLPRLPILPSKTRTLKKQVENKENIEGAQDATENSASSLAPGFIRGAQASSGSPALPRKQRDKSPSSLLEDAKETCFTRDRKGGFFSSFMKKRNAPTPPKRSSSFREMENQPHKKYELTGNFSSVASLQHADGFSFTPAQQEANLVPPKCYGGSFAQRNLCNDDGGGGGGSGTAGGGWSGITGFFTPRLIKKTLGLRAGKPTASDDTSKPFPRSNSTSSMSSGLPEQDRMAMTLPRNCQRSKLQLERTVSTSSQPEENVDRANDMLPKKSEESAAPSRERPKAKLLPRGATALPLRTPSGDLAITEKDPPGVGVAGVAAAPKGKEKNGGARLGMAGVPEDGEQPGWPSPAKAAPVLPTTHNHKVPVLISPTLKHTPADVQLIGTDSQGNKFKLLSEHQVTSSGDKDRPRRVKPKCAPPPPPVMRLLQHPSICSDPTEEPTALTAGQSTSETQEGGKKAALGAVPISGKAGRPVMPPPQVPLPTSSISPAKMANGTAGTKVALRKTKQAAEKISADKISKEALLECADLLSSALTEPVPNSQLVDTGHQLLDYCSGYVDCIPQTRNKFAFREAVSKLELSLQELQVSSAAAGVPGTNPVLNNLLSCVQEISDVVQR
attribute.measured: remaining activity at 10 µM
Answer as a quantity: numeral, then unit.

Field: example entries. Status: answers known.
Briefly, remaining activity at 10 µM measured for CCNC(=O)c1noc(-c2cc(Cl)c(O)cc2O)c1-c1ccc(OC)cc1 : 99.9%

Briefly, remaining activity at 10 µM measured for CCc1cc(-c2[nH]nc(C)c2-c2ccc3c(c2)OCCO3)c(O)cc1O : 63.6%

Briefly, remaining activity at 10 µM measured for COC1=C2C[C@@H](C)C[C@H](OC)[C@H](O)[C@@H](C)/C=C(\C)[C@H](OC(N)=O)[C@@H](OC)/C=C\C=C(/C)C(=O)NC(=CC1=O)C2=O : 115%

Briefly, remaining activity at 10 µM measured for C[C@@H]1C[C@H]2O[C@@H]2/C=C\C=C\C(=O)Cc2c(Cl)c(O)cc(O)c2C(=O)O1 : 117%

Note: attention shifts to another entry.
Briefly, remaining activity at 10 µM measured for CC(C)c1cc(C(=O)N2Cc3ccc(CN4CCN(C)CC4)cc3C2)c(O)cc1O : 105%

Reference for the values: paper PMC8550792
